Below is a list of entries, each paired with its recorded inhibition at 10 µM value.
- EXPERIMENTAL_TARGET: Jnk1a1 (Homo sapiens)
- Sequence (P45983 1-384 isoform P45983-2): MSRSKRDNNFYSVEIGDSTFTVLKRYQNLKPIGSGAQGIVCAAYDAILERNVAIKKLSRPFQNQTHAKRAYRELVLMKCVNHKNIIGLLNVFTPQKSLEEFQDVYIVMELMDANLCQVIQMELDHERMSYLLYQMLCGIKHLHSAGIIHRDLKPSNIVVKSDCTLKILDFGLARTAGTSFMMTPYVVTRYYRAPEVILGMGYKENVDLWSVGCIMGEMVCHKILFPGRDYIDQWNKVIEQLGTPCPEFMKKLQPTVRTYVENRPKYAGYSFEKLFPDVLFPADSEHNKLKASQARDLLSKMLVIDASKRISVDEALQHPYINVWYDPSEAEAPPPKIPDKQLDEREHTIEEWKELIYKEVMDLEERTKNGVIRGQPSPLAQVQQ
- PROCEDURE_SUMMARY: Jnk1a1 kinase assay
- Format: biochemical
- CONDITIONS_USED: 10 μM compound; read-out: Jnk1a1 percent of inhibition
A bare number is not enough; add the unit after it.

Answered examples (4):
Nc1cccc(Nc2nc(C3CC3)nc3sc4c(c23)CCCC4)c1 [Compound 12] : -5%
Brc1cccc(Nc2nc(C3CC3)nc3sc4ccccc4c23)c1 [Compound 18] : -7%
Oc1cccc(Nc2nc(C3CC3)nc3sc4c(c23)CCCC4)c1 [Compound 10] : -12%
O=[N+]([O-])c1cccc(Nc2nc(C3CC3)nc3sc4c(c23)CCCC4)c1 [Compound 13] : -9%

I am curious: what inhibition at 10 µM value has been reported for Fc1ccc(Nc2ncnc3sc4c(c23)CCCC4)cc1 [Compound 6] ?
15%
